# TARGET SYSTEM: human GPR119 receptor (Homo sapiens)
# Construct: host or cells: GeneBLAzer T-Rex GPR 119 CHO-K1 DA cells (CHO-K1)
# PROTOCOL DETAILS: Activity test for human GPR119 receptor (GeneBLAzer T-Rex GPR 119 CHO-K1 DA cells, fluorescence reporter)
# Type: cell-based
# EXPERIMENTAL PARAMETERS: test compound conc. 10 μM; human GPR119 CHO-K1 reporter cells, 5 hours treatment; ratio to vehicle control well; read-out: % Activation
Quick reference for activity at 10 µM among some compounds
Please respond with the number in % and leave the unit unwritten.

COMPOUND: CC(C)(F)CN1CCC(COc2ccc(-c3ccc(C(=O)N4CC[C@@H](O)C4)cc3)cc2)CC1 [Compound 553]
TARGET SYSTEM: human GPR119 receptor (Homo sapiens)
activity at 10 µM [%]: 253
//
COMPOUND: O=C(c1ccc(-c2cnc(OCC3CCN(CC4(C(F)(F)F)CCC4)CC3)cn2)cc1F)N1CCC[C@@H](O)C1 [Compound 1013]
TARGET SYSTEM: human GPR119 receptor (Homo sapiens)
activity at 10 µM [%]: 426
//
COMPOUND: NC(=O)[C@@H]1CCCN1C(=O)c1ccc(-c2ccc(OCC3CCN(CC4(C(F)(F)F)CCC4)CC3)cc2)cc1 [Compound 635]
TARGET SYSTEM: human GPR119 receptor (Homo sapiens)
activity at 10 µM [%]: 239
//
COMPOUND: CC(C)(F)CN1CCC(COc2cnc(-c3ccc(C(=O)N4CCC[C@H]4C(N)=O)c(F)c3)cn2)CC1 [Compound 944]
TARGET SYSTEM: human GPR119 receptor (Homo sapiens)
activity at 10 µM [%]: 310
//
COMPOUND: NC(=O)[C@H]1CCCCN1C(=O)c1ccc(-c2ccc(OCC3CCN(CC4(C(F)(F)F)CCC4)CC3)c(F)c2)cc1 [Compound 886]
TARGET SYSTEM: human GPR119 receptor (Homo sapiens)
activity at 10 µM [%]: 246

Entry CC(C)(F)CN1CCC(COc2ccc(-c3ccc(C(=O)N4CCC[C@H]4C(N)=O)c(F)c3)c(C#N)c2)CC1 [Compound 1028] has what activity at 10 µM?
402

Entry CC(C)(F)CN1CCC(COc2ccc(-c3ccc(C(=O)N4CCC[C@@H]4CO)c(F)c3)cc2)CC1 [Compound 641] has what activity at 10 µM?
246

###

Quick reference for activity at 10 µM among some molecules
# TARGET SYSTEM: human GPR119 receptor (Homo sapiens, UniProt Q8TDV5)
# Construct: host or cells: GeneBLAzer T-Rex GPR 119 CHO-K1 DA cells (CHO-K1)
# Sequence (Q8TDV5 whole entry): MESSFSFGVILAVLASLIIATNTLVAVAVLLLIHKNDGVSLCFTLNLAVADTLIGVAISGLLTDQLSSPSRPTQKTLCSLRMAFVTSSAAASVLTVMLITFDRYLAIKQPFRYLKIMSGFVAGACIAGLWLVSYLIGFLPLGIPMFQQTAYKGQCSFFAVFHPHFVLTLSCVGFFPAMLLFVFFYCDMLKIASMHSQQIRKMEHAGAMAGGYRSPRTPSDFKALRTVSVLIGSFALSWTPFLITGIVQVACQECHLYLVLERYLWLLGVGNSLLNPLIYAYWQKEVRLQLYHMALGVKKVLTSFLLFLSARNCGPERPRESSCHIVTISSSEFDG
# PROTOCOL DETAILS: Activity test for human GPR119 receptor (GeneBLAzer T-Rex GPR 119 CHO-K1 DA cells, fluorescence reporter)
# Assay type: cell-based
# EXPERIMENTAL PARAMETERS: test compound conc. 10 μM; human GPR119 CHO-K1 reporter cells, 5 hours treatment; ratio to vehicle control well; read-out: % Activation
Please respond with the number in % and leave the unit unwritten.

Worked set:
MOLECULE: CC(C)(F)CN1CCC(COc2ccc(-c3ccc(C(=O)N4CCOCC4)cc3)cc2)CC1 [Compound 517]
activity at 10 µM [%]: 291

MOLECULE: CC(C)(F)CN1CCC(COc2cnc(-c3ccc(C(=O)N4CCC[C@H]4C(N)=O)c(F)c3)nc2)CC1 [Compound 1032]
activity at 10 µM [%]: 430

MOLECULE: CC(C)(F)CN1CCC(COc2ccc(-c3ccc(C(=O)N4CCC[C@H]4C(N)=O)c(F)c3)cn2)CC1 [Compound 658]
activity at 10 µM [%]: 311

MOLECULE: CCC(F)(CC)CN1CCC(COc2cnc(-c3ccc(C(=O)N4CCCC[C@@H]4C(N)=O)c(F)c3)nc2)CC1 [Compound 1055]
activity at 10 µM [%]: 408

Entry CC(C)(F)CN1CCC(COc2ccc(-c3ccc(C(=O)N4CCC[C@H]4C(N)=O)c(F)c3)nc2)CC1 [Compound 770] has what activity at 10 µM?
310

Entry CC(C)(F)CN1CCC(COc2ccc(-c3ccc(C(=O)N4CC[C@@H](O)C4)c(F)c3)nc2)CC1 [Compound 768] has what activity at 10 µM?
313

Entry CN(CCO)C(=O)c1ccc(-c2ccc(OCC3CCN(CC(C)(C)F)CC3)cc2)cc1 [Compound 551] has what activity at 10 µM?
288
